test system: Plasmodium falciparum NF54 gametocytes; conditions: gametocyte stage: Stage II Dose Response IC50 (µM); assay protocol: SaLSSA, 384; incubation time: 72 h
Counter-ions that a name gives are not always drawn.
This listing pairs molecules with measured IC50 of gametocyte viability.
Expressed in µM, but write only the number.

# example entries with known answers
Please report the recorded IC50 of gametocyte viability for `CCN(CC)CCCNc1ccnc2cc(Cl)ccc12` . 0.0335

Likewise for C(CN1CCOCC1)Oc2ccc(cc2)[C@@H]3CC[C@@]4(CC3)OO[C@@]5(O4)[C@@H]6CC7C[C@@H](CC5C7)C6 [OZ 439 mesylate] ? 0.00536

Likewise for COc1cc(C)c2c(Oc3cccc(C(F)(F)F)c3)c(OC)cc(NC(C)CCCN)c2n1 (centres undefined) ? 3.68

For the next question, use this molecule.
Please report the recorded IC50 of gametocyte viability for `CCN(CC)Cc1cc(Nc2ccnc3cc(Cl)ccc23)ccc1O` . 0.00579
